Test system: TK-10
Experiment: NCI tumour cell line growth inhibition, 48 h
Activity calls are given as the source filed them. Rule as the data show it: active = GI50 up to about 1.1 µM and inactive = higher. Non-standard residues stand in square brackets, D forms with d. Residues, ends and D or L forms follow the SMILES beside them. β3hI = CC[CH](C)[CH](N)CC(=O)O

{"columns": ["MOLECULE", "GI50"],
 "data": [
  ["CCOC(=O)Oc1ccc(C(CNC(C)C)OC(=O)OCC)cc1OC(=O)OCC (stereo unspecified)", "> 100 µM (inactive)"],
  ["O=C1C2=Nc3ccccc3C(O)(C(=O)O)N2c2ccccc21 (stereo unspecified)", "81.7 µM (inactive)"],
  ["CC(C)C1SCc2nc3ccccc3n21 (stereo unspecified)", "38.5 µM (inactive)"],
  ["CCC(C)C(CC(=O)N1CCCC1C(=O)NC(C(=O)NC(C(=O)NCC(=O)NC(CC(N)=O)C(=O)NC(C(=O)NC(C(=O)NC(CCCCN)C(N)=O)C(C)CC)C(C)CC)C(C)C)C(C)CC)NC(=O)C(N)C(C)CC (stereo not drawn) (H-I[β3hI]PIVGNIIK-NH2; configuration not given here)", "> 50 µM (inactive)"],
  ["COc1cc2c(cc1OCCCC(=O)Nc1cc(C(=O)Nc3cc(C(=O)Nc4cc(C(=O)NCCCN(C)C)n(C)c4)n(C)c3)n(C)c1)N=C[C@@H]1CCCN1C2=O", "1.87 µM (inactive)"],
  ["CN(C)c1c(C2OC(CO)C(O)C2O)c(=O)c1=O (stereo unspecified)", "> 100 µM (inactive)"],
  ["O=C(Nc1nc2ccc([N+](=O)[O-])cc2s1)C(=O)C(C(=O)c1ccccc1F)C1OC(=O)c2ccccc21 (stereo unspecified)", "87.1 µM (inactive)"],
  ["CCCC[N+](CCCC)(CCCC)CCCC.O=S(=O)([O-])ON=C1c2ccccc2-c2ccccc21", "> 100 µM (inactive)"],
  ["COc1ccccc1NC(=S)N/N=C/c1cccc(C)n1", "8.99 µM (inactive)"],
  ["COc1ccc(C(=O)c2ccc(-n3cc(/C=C/[N+](=O)[O-])c4ccccc43)cc2)cc1", "6.3 µM (inactive)"],
  ["O=c1nc2occc2cn1C1CC(O)C(CO)O1 (stereo unspecified)", "> 100 µM (inactive)"]
]}

====

Test system: SN12C
Test: NCI tumour cell line growth inhibition, 48 h
Active and inactive are the calls of the source. No stated cut-off is given here; in the data, active = GI50 up to about 1.1 µM and inactive = higher.
Labels: active, inactive

{"columns": ["COMPOUND", "CLASS ASSIGNMENT"],
 "data": [
  ["Cc1ccc(Cc2n[nH]c(=O)n2/N=C\\CC/C=N\\n2c(Cc3ccc(C)cc3)n[nH]c2=O)cc1", "inactive"],
  ["CC(C)N/C(=N\\C#N)NS(=O)(=O)c1cnccc1NC1CCCCCCC1", "inactive"],
  ["Cc1cccc(-c2cc(O)c3c(C)cc(C)nc3n2)c1", "inactive"],
  ["COc1cc(C(=O)/C=C/c2ccc(OCCSCCCCCCCCCCSCCOc3ccc(/C=C/C(=O)c4cc(OC)c(OC)c(OC)c4)cc3)cc2)cc(OC)c1OC", "inactive"],
  ["Cc1sc2nc3n(c(=O)c2c1C)N=C(c1ccc(Cl)cc1)CS3", "inactive"],
  ["N#CC(C(=O)CCC(=O)Nc1cccc(Cl)c1)c1ccccc1 (stereo unspecified)", "inactive"],
  ["NC(=S)NN=Cc1ccccc1OCc1cccc(COc2ccccc2C=NNC(N)=S)n1", "inactive"],
  ["N#CCCNCCN(CCN(C(=O)Nc1ccccc1)c1ccccc1)C(=O)Nc1ccccc1", "inactive"],
  ["O=C(O)C1(Cc2ccc3c(c2)CCC3)Cc2ccccc2C1=O (stereo unspecified)", "inactive"],
  ["O=c1nc2occc2cn1C1CC(O)C(CO)O1 (stereo unspecified)", "inactive"],
  ["COc1ccc(COCC[C@H](C)OC2OC(CO)C(O)C(O)C2O)cc1 (stereo partly specified)", "inactive"],
  ["CC(Oc1ccc2c(=O)cc(-c3ccccc3)oc2c1)C(=O)O (stereo unspecified)", "inactive"],
  ["COc1ccc(OC)c2sc(N3C(=O)/C(=C/c4ccccc4S)N=C3c3ccccc3)nc12", "inactive"],
  ["COc1cc2c(oc(=O)c3c4occc4cc(OC)c23)c2cccc(OCc3ccccc3)c12", "inactive"],
  ["CC1CC(c2ccccc2)=Nc2ccccc2S1(=O)=O (stereo unspecified)", "inactive"],
  ["Cc1ccc(S(=O)(=O)Nc2ccccc2C=O)cc1", "inactive"],
  ["COc1ccc(-n2c(C)nc3ccc(NC4OCC(OC(C)=O)C(OC(C)=O)C4OC(C)=O)cc3c2=O)cc1 (stereo unspecified)", "inactive"],
  ["N/N=C1\\C(=O)N(c2ccc(Cl)c(Cl)c2)C(=O)C1C(=O)Nc1ccc(Cl)c(Cl)c1 (stereo unspecified)", "inactive"],
  ["C[C@]12CCC[C@H](OC=O)C1(O)C[C@H](C(=O)O)CC2 (stereo partly specified)", "inactive"],
  ["Cc1ccc(C)c(N2C(=O)C(=O)C(c3nc4ccccc4s3)C(=O)C2=O)c1", "inactive"],
  ["C=CCN(N=O)C(=O)NCCCCC(NC(C)=O)C(=O)NCc1ccccc1 (stereo unspecified)", "inactive"],
  ["Cc1ccc(S(=O)(=O)SCc2ccccc2)cc1", "inactive"],
  ["Cn1ncc2c(c1=O)Nc1ccccc1S2(=O)=O", "inactive"],
  ["c1cc2nnc1SCCSCCSc1ccc(nn1)SCCSCCS2", "inactive"],
  ["CSCCCN(CCCSC)CCCSC", "inactive"],
  ["CCCC[N+](CCCC)(CCCC)CCCC.O=S(=O)([O-])ON=C1c2ccccc2-c2ccccc21", "inactive"],
  ["O=[N+]([O-])c1ccc(/N=N/c2c(O)ccc3cc(S(=O)(=O)O)cc(S(=O)(=O)O)c23)cc1", "inactive"],
  ["CC(=O)c1sc2c(c1OC(=O)c1cccs1)c(=O)n(-c1ccccc1)c(=S)n2-c1ccccc1", "inactive"],
  ["O=c1[nH]nc(-c2ccccc2)c2[nH]c3c(c12)Cc1ccccc1-3", "inactive"],
  ["O=C1Nc2ccccc2S/C1=C\\c1ccccc1C(F)(F)F", "inactive"],
  ["COC(=O)C1(C(=O)OC)N=C(C)OC1/C=C/c1ccccc1 (stereo unspecified)", "inactive"],
  ["O=c1[nH]nc(-c2ccccc2)n1/N=C/c1ccc([N+](=O)[O-])cc1", "inactive"],
  ["COc1cc(C2c3cc4c(cc3[C@@H](Nc3cnc5ccccc5c3)C3COC(=O)[C@H]23)OCO4)cc(OC)c1O (stereo partly specified)", "active"],
  ["c1ccc(C(/C(=N/c2ccc(Cc3ccc(/N=C(\\C(c4ccccc4)c4ccccc4)N4CC4)cc3)cc2)N2CC2)c2ccccc2)cc1", "inactive"],
  ["CCC(C)C(N)C(=O)N/N=C\\c1c2c(nc3ccccc13)-c1cc3c(c(=O)n1C2)COC(=O)[C@]3(O)CC (stereo partly specified)", "active"],
  ["CC(=O)N1C/C(=C\\c2ccc(N(C)C)cc2)C(=O)/C(=C/c2ccc(N(C)C)cc2)C1", "inactive"],
  ["COc1nc2ccc(CNc3ccc(C(=O)O)cc3)cc2nc1OC", "inactive"],
  ["NC(=S)N/N=C1\\c2ccccc2CCC1CCC1(O)CCc2ccccc2C1=O (stereo unspecified)", "inactive"],
  ["O=c1oc2c(Br)c(O)c(Br)cc2c2ccccc12", "inactive"],
  ["Cn1cc(C[C@@H](N)C(=O)O)c2ccccc21", "inactive"],
  ["COc1cc(C2SCC(=O)N2c2ccccn2)cc(OC)c1OC (stereo unspecified)", "inactive"]
]}
